Can you tell me combination Emax for the items I'm about to list?
# System: TOV-112D (Ovarian Carcinoma)
# testSummary: combination Emax (second highest fraction inhibited in the dose matrix, 72 h); higher = more inhibition; extreme values may be limits of the assay
API doc: respond with a numeric literal and nothing else, no unit.

Which combination Emax value belongs to Cc1cc2ncnn2cc1Nc1ncc2c(n1)n(C1CCOCC1)c(=O)n2C [AZD7648] + C=CCn1c(=O)c2cnc(Nc3ccc(N4CCN(C)CC4)cc3)nc2n1-c1cccc(C(C)(C)O)n1 [AZD1775] (first compound max 10 µM, partner max 1 µM) ?
0.468

Record: COc1cc2c(cc1OCCCCCOc1cc3c(cc1OC)C(=O)N1C=C(C)C[C@H]1C=N3)N=C[C@@H]1CC(C)=CN1C2=O [SG3199] + O=C(c1cc(Cc2n[nH]c(=O)c3ccccc23)ccc1F)N1CCN(C(=O)C2CC2)CC1 [Olaparib] (first compound max 0.001 µM, 7x7, partner max 10 µM)
0.269

And for NC1(C(=O)N[C@@H](CCO)c2ccc(Cl)cc2)CCN(c2ncnc3[nH]ccc23)CC1 [Capivasertib] + CC(C)n1c(=O)n(C)c2cnc3cc(F)c(-c4ccc(OCCCN5CCCCC5)nc4)cc3c21 [AZD1390] (first compound max 10 µM, 7x7, partner max 0.3 µM) ?
0.175

// query: Cc1nc(Nc2ncc(C(=O)Nc3c(C)cccc3Cl)s2)cc(N2CCN(CCO)CC2)n1 [Dasatinib] + CC(=O)Nc1cccc(-n2c(=O)n(C3CC3)c(=O)c3c(Nc4ccc(I)cc4F)n(C)c(=O)c(C)c32)c1 [Trametinib] (first compound max 2 µM, 7x7, partner max 1 µM)
0.749

---

# Test system: ES8 (Ewing's Sarcoma)
# testSummary: combination Emax (second highest fraction inhibited in the dose matrix, 72 h); higher = more inhibition; extreme values may be limits of the assay
resultType: combination Emax
Simply state the number, no unit and no words.

Look up combination Emax with ES8 (Ewing's Sarcoma) for this molecule: CCN(CCO)CCCOc1ccc2c(Nc3cc(CC(=O)Nc4cccc(F)c4)[nH]n3)ncnc2c1 [AZD2811] + C[C@@H]1COCCN1C2=NC(=NC(=C2)C3(CC3)[S@](=N)(=O)C)C4=C5C=CNC5=NC=C4 [AZD6738] (first compound max 1 µM, 7x7, partner max 10 µM)
1

Moving on to Cc1cc2ncnn2cc1Nc1ncc2c(n1)n(C1CCOCC1)c(=O)n2C [AZD7648] + CN(C)CCCOc1ccc(-c2ccc3ncc4c(c3c2)n(C2CCOCC2)c(=O)n4C)cn1 [AZD0156] (first compound max 10 µM, 7x7, partner max 1 µM)
0.408

Let us now turn to COc1cccc(OCCCN)c1-c1cc(Nc2cnc(C#N)cn2)n[nH]1 [Prexasertib] + Cc1cc2ncnn2cc1Nc1ncc2c(n1)n(C1CCOCC1)c(=O)n2C [AZD7648] (first compound max 1 µM, 7x7, partner max 10 µM)
0.842

Try this molecule too: C=CCn1c(=O)c2cnc(Nc3ccc(N4CCN(C)CC4)cc3)nc2n1-c1cccc(C(C)(C)O)n1 [AZD1775] + Nc1ccn([C@@H]2O[C@H](CO)[C@@H](O)C2(F)F)c(=O)n1 [Gemcitabine] (first compound max 1 µM, partner max 0.3 µM)
1

Again, but for O=C(c1cc(Cc2n[nH]c(=O)c3ccccc23)ccc1F)N1CCN(C(=O)C2CC2)CC1 [Olaparib] + CC1(C)CCC(CN2CCN(c3ccc(C(=O)NS(=O)(=O)c4ccc(NCC5CCOCC5)c([N+](=O)[O-])c4)c(Oc4cnc5[nH]ccc5c4)c3)CC2)=C(c2ccc(Cl)cc2)C1 [Venetoclax] (first compound max 10 µM, 7x7, partner max 1 µM)
0.964

Same again, this time with C[C@@H](Nc1cc(F)cc(F)c1)c1cc(C(=O)N(C)C)cc2c(=O)cc(N3CCOCC3)oc12 [AZD8186] + CC(=O)c1c(C)c2cnc(Nc3ccc(N4CCNCC4)cn3)nc2n(C2CCCC2)c1=O [Palbociclib] (first compound max 10 µM, 7x7, partner max 10 µM)
0.676

Again, but for CN(C)CCCOc1ccc(-c2ccc3ncc4c(c3c2)n(C2CCOCC2)c(=O)n4C)cn1 [AZD0156] + O=C(c1cc(Cc2n[nH]c(=O)c3ccccc23)ccc1F)N1CCN(C(=O)C2CC2)CC1 [Olaparib] (first compound max 3 µM, partner max 3 µM)
0.877

---

Give Bliss excess for every item shown.
# Test system: KM12 (Colorectal Carcinoma)
# testSummary: Bliss excess, mean over the matrix (fraction); higher = more synergy
Reply: number alone, nothing else.

Lab request: please report Bliss excess under test system KM12 (Colorectal Carcinoma) for CCc1c2c(nc3ccc(O)cc13)-c1cc3c(c(=O)n1C2)COC(=O)[C@]3(O)CC [SN-38] + CN(C)CCCOc1ccc(-c2ccc3ncc4c(c3c2)n(C2CCOCC2)c(=O)n4C)cn1 [AZD0156] (first compound max 0.3 µM, 7x7, partner max 1 µM)
0.0711

Same question, COc1cccc(OCCCN)c1-c1cc(Nc2cnc(C#N)cn2)n[nH]1 [Prexasertib] + CCc1c2c(nc3ccc(O)cc13)-c1cc3c(c(=O)n1C2)COC(=O)[C@]3(O)CC [SN-38] (first compound max 1 µM, 7x7, partner max 0.3 µM) this time
0.0186

Another compound: Cc1c2c(nn1C)CSCc1cc(n(C)n1)CSc1cc(c3ccccc3c1)OCCCc1c(C(=O)O)n(C)c3c-2c(Cl)ccc13 [AZD5991] + Cn1cnc2c(F)c(Nc3ccc(Br)cc3Cl)c(C(=O)NOCCO)cc21 [Selumetinib] (first compound max 1 µM, 7x7, partner max 3 µM)
-0.0063

Next compound up: Cc1cc2ncnn2cc1Nc1ncc2c(n1)n(C1CCOCC1)c(=O)n2C [AZD7648] + CN(C)CCCOc1ccc(-c2ccc3ncc4c(c3c2)n(C2CCOCC2)c(=O)n4C)cn1 [AZD0156] (first compound max 10 µM, 7x7, partner max 1 µM)
0.0312

---

# System: NCI-H1792 (Lung Adenocarcinoma)
# testSummary: combination Emax (second highest fraction inhibited in the dose matrix, 72 h); higher = more inhibition; extreme values may be limits of the assay
Give measured combination Emax for each item. Keep answers brief.
Write the value as a bare number.

Recorded combination Emax of CN(CCO)CC[C@H](CSc1ccccc1)Nc1ccc(S(=O)(=O)NC(=O)c2ccc(N3CCC([C@@H](O)c4ccccc4-c4ccc(Cl)cc4)CC3)cc2)cc1S(=O)(=O)C(F)(F)F [AZD4320] + C=CCn1c(=O)c2cnc(Nc3ccc(N4CCN(C)CC4)cc3)nc2n1-c1cccc(C(C)(C)O)n1 [AZD1775] (first compound max 1 µM, partner max 1 µM) , please.
0.696

What about this molecule? NC1(C(=O)N[C@@H](CCO)c2ccc(Cl)cc2)CCN(c2ncnc3[nH]ccc23)CC1 [Capivasertib] + CC(=O)c1c(C)c2cnc(Nc3ccc(N4CCNCC4)cn3)nc2n(C2CCCC2)c1=O [Palbociclib] (first compound max 10 µM, 7x7, partner max 10 µM)
0.553

Next up: CS(=O)(=O)CCNCc1ccc(-c2ccc3ncnc(Nc4ccc(OCc5cccc(F)c5)c(Cl)c4)c3c2)o1 [Lapatinib] + NC1(c2ccc(-c3nc4ccn5c(=O)[nH]nc5c4cc3-c3ccccc3)cc2)CCC1 [MK-2206] (first compound max 10 µM, 7x7, partner max 10 µM)
0.785

---

Kindly supply the reported Bliss excess values for the records listed here.
# System: SW1417 (Colorectal Carcinoma)
# testSummary: Bliss excess, mean over the matrix (fraction); higher = more synergy
Write the number on its own, no unit after it.

Request the reported Bliss excess associated with CC1(C)CCC(CN2CCN(c3ccc(C(=O)NS(=O)(=O)c4ccc(NCC5CCOCC5)c([N+](=O)[O-])c4)c(Oc4cnc5[nH]ccc5c4)c3)CC2)=C(c2ccc(Cl)cc2)C1 [Venetoclax] + C[C@@H]1COCCN1C2=NC(=NC(=C2)C3(CC3)[S@](=N)(=O)C)C4=C5C=CNC5=NC=C4 [AZD6738] (first compound max 1 µM, 7x7, partner max 10 µM)
-0.0247

Do the same for Cn1cnc2c(F)c(Nc3ccc(Br)cc3Cl)c(C(=O)NOCCO)cc21 [Selumetinib] + CCN(CCO)CCCOc1ccc2c(Nc3cc(CC(=O)Nc4cccc(F)c4)[nH]n3)ncnc2c1 [AZD2811] (first compound max 10 µM, 7x7, partner max 1 µM) please
0.058

---

For each record, write down the corresponding combination Emax.
# Tested on: U251 (Low Grade Glioma)
# testSummary: combination Emax (second highest fraction inhibited in the dose matrix, 72 h); higher = more inhibition; extreme values may be limits of the assay
// keep it numeric: no unit symbol after the value

# query: combination Emax | item CC1(C)CCC(CN2CCN(c3ccc(C(=O)NS(=O)(=O)c4ccc(NCC5CCOCC5)c([N+](=O)[O-])c4)c(Oc4cnc5[nH]ccc5c4)c3)CC2)=C(c2ccc(Cl)cc2)C1 [Venetoclax] + COc1cc(Nc2ncc3c(n2)-c2ccc(Cl)cc2C(c2c(F)cccc2OC)=NC3)ccc1C(=O)O [Alisertib] (first compound max 1 µM, 7x7, partner max 10 µM) | system: U251 (Low Grade Glioma)
0.49

Also need C=CCn1c(=O)c2cnc(Nc3ccc(N4CCN(C)CC4)cc3)nc2n1-c1cccc(C(C)(C)O)n1 [AZD1775] + C1CN(CCC1(C(=O)N[C@@H](CCO)C2=CC=C(C=C2)Cl)N)C3=NC=NC4=C3C=CN4 [Capivasertib] (first compound max 3 µM, partner max 3 µM) , thanks.
0.671

One more compound: CN(CCO)CC[C@H](CSc1ccccc1)Nc1ccc(S(=O)(=O)NC(=O)c2ccc(N3CCC([C@@H](O)c4ccccc4-c4ccc(Cl)cc4)CC3)cc2)cc1S(=O)(=O)C(F)(F)F [AZD4320] + C1CN(CCC1(C(=O)N[C@@H](CCO)C2=CC=C(C=C2)Cl)N)C3=NC=NC4=C3C=CN4 [Capivasertib] (first compound max 1 µM, 7x7, partner max 3 µM)
0.181

Param item: Cc1c2c(nn1C)CSCc1cc(n(C)n1)CSc1cc(c3ccccc3c1)OCCCc1c(C(=O)O)n(C)c3c-2c(Cl)ccc13 [AZD5991] + C[C@@H](Nc1cc(F)cc(F)c1)c1cc(C(=O)N(C)C)cc2c(=O)cc(N3CCOCC3)oc12 [AZD8186] (first compound max 1 µM, 7x7, partner max 3 µM)
0.226

Moving on to the next compound: CCN(CCO)CCCOc1ccc2c(Nc3cc(CC(=O)Nc4cccc(F)c4)[nH]n3)ncnc2c1 [AZD2811] + C=CCn1c(=O)c2cnc(Nc3ccc(N4CCN(C)CC4)cc3)nc2n1-c1cccc(C(C)(C)O)n1 [AZD1775] (first compound max 1 µM, partner max 1 µM)
0.266

Please give the result for CN(C)CCCOc1ccc(-c2ccc3ncc4c(c3c2)n(C2CCOCC2)c(=O)n4C)cn1 [AZD0156] + C=CCn1c(=O)c2cnc(Nc3ccc(N4CCN(C)CC4)cc3)nc2n1-c1cccc(C(C)(C)O)n1 [AZD1775] (first compound max 1 µM, partner max 1 µM) too.
0.398

Try this compound next: Cn1cnc2c(F)c(Nc3ccc(Br)cc3Cl)c(C(=O)NOCCO)cc21 [Selumetinib] + C=CCn1c(=O)c2cnc(Nc3ccc(N4CCN(C)CC4)cc3)nc2n1-c1cccc(C(C)(C)O)n1 [AZD1775] (first compound max 10 µM, partner max 1 µM)
0.326

What do we get for Cc1c2c(nn1C)CSCc1cc(n(C)n1)CSc1cc(c3ccccc3c1)OCCCc1c(C(=O)O)n(C)c3c-2c(Cl)ccc13 [AZD5991] + CCN(CCO)CCCOc1ccc2c(Nc3cc(CC(=O)Nc4cccc(F)c4)[nH]n3)ncnc2c1 [AZD2811] (first compound max 1 µM, 7x7, partner max 1 µM) ?
0.423

// same read-out, input: Cc1c2c(nn1C)CSCc1cc(n(C)n1)CSc1cc(c3ccccc3c1)OCCCc1c(C(=O)O)n(C)c3c-2c(Cl)ccc13 [AZD5991] + C[C@@H]1COCCN1C2=NC(=NC(=C2)C3(CC3)[S@](=N)(=O)C)C4=C5C=CNC5=NC=C4 [AZD6738] (first compound max 1 µM, 7x7, partner max 10 µM)
0.648

Moving on to the next compound: Cc1cc2ncnn2cc1Nc1ncc2c(n1)n(C1CCOCC1)c(=O)n2C [AZD7648] + C=CCn1c(=O)c2cnc(Nc3ccc(N4CCN(C)CC4)cc3)nc2n1-c1cccc(C(C)(C)O)n1 [AZD1775] (first compound max 10 µM, partner max 1 µM)
0.319

Same lookup for NC1(C(=O)N[C@@H](CCO)c2ccc(Cl)cc2)CCN(c2ncnc3[nH]ccc23)CC1 [Capivasertib] + C[C@@H]1COCCN1C2=NC(=NC(=C2)C3(CC3)[S@](=N)(=O)C)C4=C5C=CNC5=NC=C4 [AZD6738] (first compound max 10 µM, 7x7, partner max 10 µM) , please.
0.444

Queued: CC(=O)c1c(C)c2cnc(Nc3ccc(N4CCNCC4)cn3)nc2n(C2CCCC2)c1=O [Palbociclib] + Cc1c2c(nn1C)CSCc1cc(n(C)n1)CSc1cc(c3ccccc3c1)OCCCc1c(C(=O)O)n(C)c3c-2c(Cl)ccc13 [AZD5991] (first compound max 10 µM, 7x7, partner max 1 µM)
0.297

Okay, and CC(=O)c1c(C)c2cnc(Nc3ccc(N4CCNCC4)cn3)nc2n(C2CCCC2)c1=O [Palbociclib] + CN(CC[C@H](CSC1=CC=CC=C1)NC2=C(C=C(C=C2)S(=O)(=O)NC(=O)C3=CC=C(C=C3)N4CCC(CC4)[C@H](C5=CC=CC=C5C6=CC=C(C=C6)Cl)O)S(=O)(=O)C(F)(F)F)CCO [AZD4320] (first compound max 10 µM, 7x7, partner max 1 µM) ?
0.294

Just for reference, the supplement of paper PMC11061612 is where these values come from.
